Reference source: paper PMC5913336

measurement target: T1, Bicoid DBD-GST (Bcd) (UniProt P09081 83-170)
T1 sequence: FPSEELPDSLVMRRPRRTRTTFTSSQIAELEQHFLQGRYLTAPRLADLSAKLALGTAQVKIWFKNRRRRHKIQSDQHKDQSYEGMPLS
test name: competitive fluorescence anisotropy (HiP-FA); mean of replicates 2.884, 2.6855; HiP-FA: 33 mM phosphate pH 7.0, 90 mM NaCl, 0.01% Tween 20, 0.1 mM DTT, 0.5% agarose; conventional titration and EMSA: 20 mM Tris-acetate pH 7.0, 50 nM (sic) NaCl, 0.01% Tween-20, 0.1 mM DTT
measurement parameters: protein: recombinant; tags: N-terminal GST; blunt, G:G mismatch at position 6
observed property: pKd
Quick note: pKd values are minus log10 of concentrations in mol/L.

**Query** What pKd value was documented for this binder, Bcd competitor 7 (G3C) (dsDNA) DNA 1: TCGACGCTAATCCCTA DNA 2: TAGGGATTAGGGTCGA ?
**Result** 8.56
